The measured values listed here are drawn from patent US20060069132A1.

# Tested on: corn
# test-method-notes: Test C pre-/postemergence herbicide test
# Type: in vivo, Zea mays
# condition-set: 500 g ai/ha; scale 0 to 100 (0 no effect, 100 complete control); visual, 12 to 14 days; preemergence
Hi! Just check whether Plant response rating, Corn is below 80. Below gives yes, equal or above gives no.

| structure-as-smiles | tested-target | assigned-label |
| --- | --- | --- |
| CCNC(=O)c1cccc(NC(=O)c2sc(C(C)(C)C)nc2CC)n1 | corn | yes |
| CCc1nn(C(C)(C)C)cc1C(=O)Nc1cc(C(=O)N(CC)CC)ccc1F | corn | yes |
| CCc1nn(C(C)(C)C)cc1C(=O)Nc1cc(C(=O)N(C)C)ccn1 | corn | no |
| CCNC(=O)c1cccc(NC(=O)c2sc(C(C)(C)C)nc2CC)c1 | corn | yes |
| CCn1nc(C2(C)CC2)cc1C(=O)Nc1cc(C(=O)N(C)C)ccc1F | corn | yes |
